Each recorded value in this set is attributed to PubChem BioAssay (NCI).

Record set of GI50 for target or system NCI-H460 lung.

Prompt line: What does the record list as GI50 for c1cc(-c2nnc(SSc3ncnc4nc[nH]c34)o2)ccn1 ?
Response line: 5.15 µM

Prompt line: What does the record list as GI50 for COc1ccc(C(=O)c2cc3c(N)c(C(=O)Nc4ccccc4)sc3nc2C)cc1 ?
Response line: 0.439 µM

Prompt line: What does the record list as GI50 for COc1ccc2c(c1OC)-c1c(c3ccc([N+](=O)[O-])cc3c(=O)n1CCCBr)C2=O ?
Response line: 6.64 µM

Prompt line: What does the record list as GI50 for O=S1(=O)N(Cc2ccccc2)[C@@H](Cc2ccccc2)[C@H](O)[C@H](O)[C@H](Cc2ccccc2)N1Cc1ccccc1 ?
Response line: 3.41 µM
